assay: Cmax in healthy human at 800 mg/day, po administered for 21 days measured at day 1; format: ADME, organism-based; parameters: dose 800 mg/day, route oral; settings: in vivo
metric: Cmax (ng/mL)
The answer is to be given in ng/mL; state only the numeric part.

**Query** // returns reported Cmax for input "O=C(NN1C(=O)[C@@H]2[C@@H]3C=C[C@@H]([C@H]4C[C@@H]34)[C@@H]2C1=O)c1ccc(C(F)(F)F)cc1"
**Result** 2280

###

assay: Cmax in healthy human at 800 mg/day, po administered for 21 days measured at day 6; assay type: ADME, organism-based; parameters: dose 800 mg/day, route oral; conditions: in vivo
metric: Cmax (ng/mL)
The answer is to be given in ng/mL; state only the numeric part.

**Query** // returns reported Cmax for input O=C(NN1C(=O)[C@@H]2[C@@H]3C=C[C@@H]([C@H]4C[C@@H]34)[C@@H]2C1=O)c1ccc(C(F)(F)F)cc1 [TECOVIRIMAT]
**Result** 2340
